- Test method notes: TLR3 IRF3 reporter activation blockers – cell-based, poly I:C stimulus, luciferase, 10K MLSCN set, primary screen (AID 602277)
- Experimental setup: HEK293-TLR3 RL24 IRF3 luciferase reporter, at 10 µM, hits give high values
Readout name: inhibition (%)
Give bare numbers, in %.

Worked examples follow.
| Molecule | Unit abbrev | inhibition |
| --- | --- | --- |
| COC(=O)c1cnc2c(C(F)(F)F)cccc2c1OC | % | 10.1 |
| O=C1NC2(Nc3ccccc31)C(=O)Nc1ccccc12 (stereo unspecified) | % | 37.4 |
| Cc1cc(C(=O)Nc2nc3c(s2)CCCC3)cs1 | % | -131 |
| CCOC(=O)CSc1nc2c(c(-c3ccc(C)o3)c1C#N)CCCC2 | % | 18.3 |
| COCCN(C(=O)c1csnn1)C(C(=O)NC1CCCCC1)c1cccs1 (stereo unspecified) | % | 23.1 |
| O=C(NCCN1C(=O)C2C3C=CC(C3)C2C1=O)Nc1ccccn1 (stereo unspecified) | % | 16.9 |
| CCc1cc(=O)n2[nH]c(C)c(-c3ccccc3OC)c2n1 | % | 16.3 |
| COc1ccccc1NC(=O)CSc1nnc(CC(=O)Nc2ccccc2)n1C | % | 20.7 |

List the reported inhibition of each molecule below.
1. c1ccc2c(c1)Cc1cc(CN3CCOCC3)ccc1-2
2. CCCN(Cc1cc2cc(C)ccc2[nH]c1=O)C(=O)c1cccc(OC)c1
3. CC1CN(C(=O)CSc2nnc(-c3ccc(Cl)cc3)n2C)CC(C)O1 (stereo unspecified)
4. CCOC(=O)CNC(=O)CSc1nnnn1-c1cc(C)ccc1C

Reply |
[-105, 10.9, -17.3, 10.9]

Fill in inhibition for each of the 3 molecules listed.
1. Cc1ccnc(NC(=O)CCC(=O)N(CC(=O)NC(C)(C)C)C2CCCC2)c1
2. CCOC(=O)c1csc(NC(=O)C2CCCCC2)n1
3. COCCn1nnnc1CN1CCC(Cc2ccccc2)CC1

Reply |
1. 9.79
2. -124
3. 13.6

Each of the following entries comes with a recorded value; kindly state inhibition for each.
1. COc1ccc(C2C3=C(OC(C)=O)c4ccccc4C3=Nc3c2c(=O)n(C)c(=O)n3C)cc1 (stereo unspecified)
2. CCOC(=O)N1CCN(C(=O)COc2ccc(Br)cc2Cl)CC1
3. O=C(NCCCN1CCOCC1)c1cc(-c2ccc(O)cc2)on1
4. CCOC(=O)Nc1c(O)ccc2oc(C)c(-c3ccccc3)c12
5. CCS(=O)(=O)c1nc2ccccc2n1Cc1ccccc1Cl
6. COc1ccc(N2CCN(Cc3nc4c(c(=O)[nH]c(=O)n4C)n3CC(C)=O)CC2)cc1

Reply |
[12.4, 30.7, -5.13, 28.6, 18.9, 29.5]

Source: PubChem BioAssay
